Exercise: for every item that follows, state its recorded IC50.
# number only, unit nM dropped from output

Exercise: State IC50 on Factor XIa (Homo sapiens). Entry: Nc1noc2cc(NC(=O)[C@@H]3CCC4CC(c5c(-n6cnnn6)ccc(Cl)c5F)=CC(=O)N43)ccc12 (single isomer, unassigned)
Sequence (P03951 388-625 limits assumed): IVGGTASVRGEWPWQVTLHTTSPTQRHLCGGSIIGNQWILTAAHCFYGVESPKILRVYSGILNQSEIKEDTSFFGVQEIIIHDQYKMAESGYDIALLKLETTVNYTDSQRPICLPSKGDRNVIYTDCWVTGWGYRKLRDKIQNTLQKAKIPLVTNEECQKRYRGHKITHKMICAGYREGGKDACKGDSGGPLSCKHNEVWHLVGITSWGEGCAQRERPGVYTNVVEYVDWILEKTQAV
Sequence (P03951 19-387 partner limits assumed): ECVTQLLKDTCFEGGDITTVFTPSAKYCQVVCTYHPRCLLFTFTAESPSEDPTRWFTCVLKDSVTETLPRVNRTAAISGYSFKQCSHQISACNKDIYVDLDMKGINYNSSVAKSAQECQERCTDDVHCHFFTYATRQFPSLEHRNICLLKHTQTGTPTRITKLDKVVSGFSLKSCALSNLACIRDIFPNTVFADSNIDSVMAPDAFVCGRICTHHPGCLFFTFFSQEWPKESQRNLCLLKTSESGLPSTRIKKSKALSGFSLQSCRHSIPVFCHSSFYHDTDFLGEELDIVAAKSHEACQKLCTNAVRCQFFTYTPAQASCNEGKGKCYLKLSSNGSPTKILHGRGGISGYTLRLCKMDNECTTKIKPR
Solution: 6.7

Exercise: State IC50 on Factor XIa (Homo sapiens). Entry: CO[C@@H]1C[C@@H](C(=O)Nc2ccc3ncccc3c2)N2C(=O)C=C(c3c(-n4cnnn4)ccc(Cl)c3F)CC12 (mixture of isomers)
Solution: 7.8

Exercise: State IC50 on Factor XIa (Homo sapiens). Entry: O=C(Nc1ccc(-n2cnnn2)cc1)[C@@H]1CCC2CC(c3c(-n4cnnn4)ccc(Cl)c3F)=CC(=O)N21 (mixture of isomers)
Solution: 26.3

Exercise: State IC50 on Factor XIa (Homo sapiens). Entry: CN(C)c1ccc2cc(NC(=O)[C@@H]3CC[C@@H]4CC(c5c(-n6cnnn6)ccc(Cl)c5F)=CC(=O)N43)ccc2n1
Solution: 38.8

Exercise: State IC50 on Factor XIa (Homo sapiens). Entry: COCCn1ncc2cc(NC(=O)[C@@H]3CCC4CC(c5c(-n6cnnn6)ccc(Cl)c5F)=CC(=O)N43)ccc21 (mixture of isomers)
Solution: 26.9

Exercise: State IC50 on Factor XIa (Homo sapiens). Entry: O=C(O)c1ccc(NC(=O)[C@@H]2CC[C@@H]3CC(c4c(-n5cnnn5)ccc(Cl)c4F)=CC(=O)N32)cc1F (single isomer, unassigned)
Solution: 0.9

Exercise: State IC50 on Factor XIa (Homo sapiens). Entry: Cn1oc(=O)nc1-c1ccc(NC(=O)[C@@H]2CCC3CC(c4c(-n5cnnn5)ccc(Cl)c4F)=CC(=O)N32)cc1 (mixture of isomers)
Solution: 183

Exercise: State IC50 on Factor XIa (Homo sapiens). Entry: O=C(Nc1ccc(-c2nc(=O)o[nH]2)cc1)[C@@H]1CCC2CC(c3c(OC(F)F)ccc(Cl)c3F)=CC(=O)N21 (mixture of isomers)
Solution: 40.2

Exercise: State IC50 on Factor XIa (Homo sapiens). Entry: NC(=O)c1ccc(NC(=O)[C@@H]2CC[C@@H]3CC(c4c(-n5cc(C(F)(F)F)nn5)ccc(Cl)c4F)=CC(=O)N32)cc1F
Solution: 38.2

Exercise: State IC50 on Factor XIa (Homo sapiens). Entry: CO[C@H]1C[C@@H](C(=O)Nc2ccc3n[nH]cc3c2)N2C(=O)C=C(c3c(-n4cnnn4)ccc(Cl)c3F)CC12 (mixture of isomers)
Solution: 136
